Test system: NCI-H460
Experiment: Cytotoxicity against human H460 cells assessed as surviving cells after 4 days by MTT assay
Assay type: cell-based
Conditions: nci-h460
measureName: pIC50
// returns pIC50 (minus log10 of molar concentration), number only

So for C/C=C/C(=O)OCC1=CC(O)C2OC(C)(OC)C(C)(OC)OC2C1=O (racemic) , the logged pIC50 turned out to be 4.74

Item: C/C=C/C(=O)OCC1=CC(O)C(O)C(O)C1=O (racemic) | pIC50: 3.80
